From: paper PMC4336329

Molecular target: human ether-à-go-go-related gene (hERG) potassium channel (human)
Assay: primary screen, population patch clamp on CHO cells stably expressing hERG; higher = less effect of the substance
About 14,000 (4.5%) of roughly 310,000 compounds showed an effect of 50% or more. Effects have a minus sign here. Only a selection was taken, and strong results are over-represented in it overall.
Value Type: hERG current change (%, negative = inhibition) at 10uM (%)
Numbers only, in %.

Molecule	Tested On	Unit Info	Numeric Value
COc1ccc(/C(C)=N/Nc2nc3ccccc3n3cnnc23)cc1OC	human ether-à-go-go-related gene (hERG) potassium channel (human)	%	-19.4

Go through the items and report each one's hERG current change (%, negative = inhibition) at 10uM.
1. Cc1ccc(C(C)C)c(O)c1
2. Cc1ccccc1C(=O)Nc1ccc2nc3n(c(=O)c2c1)CCC3
3. CCOc1ncccc1C(=O)Nc1cc(S(=O)(=O)N2CCCCC2)ccc1OC
4. CC(C)C1N=C2c3ccccc3N=C(SCc3cc(=O)n4cc(Cl)ccc4n3)N2C1=O (stereo not shown)
5. Fc1ccc2nc3c(nc2c1)CCCC3
6. Cc1ccc2nc(CSc3nnc4ccccn34)cc(=O)n2c1
7. CC(=O)c1ccc(NC(=O)CSc2nnc(-c3ccncc3)n2C2CC2)cc1

1: 19.7; 2: -9.1; 3: -8.23; 4: -67; 5: 15.3; 6: 13.2; 7: -5.46

----------
Provide the reported hERG current change (%, negative = inhibition) at 10uM of each item.
Molecular target: human ether-à-go-go-related gene (hERG) potassium channel (human, UniProt Q12809)
Sequence (Q12809 whole entry, looked up): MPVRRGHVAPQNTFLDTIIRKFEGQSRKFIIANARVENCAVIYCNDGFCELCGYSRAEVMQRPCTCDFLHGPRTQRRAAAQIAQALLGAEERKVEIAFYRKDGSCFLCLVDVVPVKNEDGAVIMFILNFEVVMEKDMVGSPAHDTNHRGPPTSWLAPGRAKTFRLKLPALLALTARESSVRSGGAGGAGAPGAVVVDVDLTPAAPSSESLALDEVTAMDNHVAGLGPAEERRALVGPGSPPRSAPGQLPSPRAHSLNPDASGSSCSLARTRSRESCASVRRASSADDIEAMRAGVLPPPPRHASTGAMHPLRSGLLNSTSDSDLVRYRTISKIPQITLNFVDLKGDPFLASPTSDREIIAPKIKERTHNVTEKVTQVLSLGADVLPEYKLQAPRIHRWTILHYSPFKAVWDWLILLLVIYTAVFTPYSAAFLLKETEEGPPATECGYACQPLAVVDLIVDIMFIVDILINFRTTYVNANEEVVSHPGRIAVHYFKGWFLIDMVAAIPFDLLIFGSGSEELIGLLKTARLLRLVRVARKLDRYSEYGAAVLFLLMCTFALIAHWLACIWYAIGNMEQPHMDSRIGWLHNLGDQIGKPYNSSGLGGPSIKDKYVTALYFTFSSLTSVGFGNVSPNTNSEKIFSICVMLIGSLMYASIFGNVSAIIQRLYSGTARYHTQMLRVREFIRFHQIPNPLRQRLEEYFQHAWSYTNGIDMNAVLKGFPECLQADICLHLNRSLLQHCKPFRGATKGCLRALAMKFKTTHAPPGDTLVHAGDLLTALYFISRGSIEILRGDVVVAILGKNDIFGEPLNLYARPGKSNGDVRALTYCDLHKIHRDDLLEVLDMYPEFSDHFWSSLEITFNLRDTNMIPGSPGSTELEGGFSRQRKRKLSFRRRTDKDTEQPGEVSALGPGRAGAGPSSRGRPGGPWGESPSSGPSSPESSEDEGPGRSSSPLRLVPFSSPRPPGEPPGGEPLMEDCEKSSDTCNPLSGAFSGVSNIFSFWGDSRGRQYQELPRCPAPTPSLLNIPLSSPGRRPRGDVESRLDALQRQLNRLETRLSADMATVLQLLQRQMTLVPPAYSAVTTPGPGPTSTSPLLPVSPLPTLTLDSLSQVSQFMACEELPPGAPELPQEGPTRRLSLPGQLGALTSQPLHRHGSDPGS
Test: primary screen, population patch clamp on CHO cells stably expressing hERG; higher = less effect of the substance
Out of some 310,000 compounds screened, about 14,000 (4.5%) showed an effect of 50% or more. The effect is printed as a negative number. This excerpt belongs to a sample that is enriched for strong results.
Lab note: write values as number then unit, every time.

Compound	Result
O=C1CCCN1CCCNc1ncnc2c1[nH]c1ccc(Cl)cc12	-29.4%

List hERG current change (%, negative = inhibition) at 10uM for every entry below, keeping the order given.
1. COc1cc(C(=O)NCCCn2ccnc2)cc(OC)c1OC.Cl
2. COc1cc(CN2CCN(C(=O)c3ccc(-c4ccccc4)cc3)CC2)cc(OC)c1OC.O=C(O)C(=O)O
3. O=c1c2[nH]c3ccc(F)cc3c2ncn1CCN1CCN(Cc2ccccc2)CC1
4. CCC1CCCN1Cn1cnc2c([nH]c3ccccc32)c1=O (stereo not drawn)
5. O=C(Cn1c(=O)oc2ccccc21)Nc1ccccc1C(F)(F)F
6. CCc1ccccc1NC(=O)CN1CCN(C(=O)CN2C(=O)NC3(CCCC3)C2=O)CC1
7. COc1cc(CN2CCN(C(=O)COc3ccccc3)CC2)cc(OC)c1OC

1. 20.6%
2. -54.7%
3. -63.2%
4. -62.1%
5. 21.6%
6. 7.54%
7. -14.1%

For the 3 compounds below, give their hERG current change (%, negative = inhibition) at 10uM values.
1. Fc1ccc(C[n+]2c(-c3ccccc3)cc(-c3ccccc3)cc2-c2ccccc2)cc1.[O-][Cl+3]([O-])([O-])[O-]
2. COc1cccc(CN2CCN(C(=O)c3ccc(-c4ccccc4)cc3)CC2)c1OC.O=C(O)C(=O)O
3. CCC1CCCCN1C(=O)NC(=O)c1ccccc1 (stereo not drawn)

["-71.5%", "-5.41%", "30.3%"]

----------
Would you kindly list hERG current change (%, negative = inhibition) at 10uM for each of these compounds?
Target: human ether-à-go-go-related gene (hERG) potassium channel (human);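 further: peak tail current of the secondary pulse compared with the same well before compound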
Assay: primary screen, population patch clamp on CHO cells stably expressing hERG; higher = less effect of the substance
Out of some 310,000 compounds screened, about 14,000 (4.5%) showed an effect of 50% or more. Effects have a minus sign here. Only a selection was taken, and strong results are over-represented in it overall.
Give bare numbers, in %.

// solved cases for hERG current change (%, negative = inhibition) at 10uM follow
CNCc1ccccc1Sc1cccc2ccccc12.O=C(O)/C=C\C(=O)O -45.4
CCCSc1nc2c(c(=O)[nH]c(=O)n2C)n1C 2.58
OCc1ccccc1CN1CCCCCC1 -9.62
S=C(Nc1cccc(Cl)c1)N(CCCN1CCCC1)Cc1cccn1Cc1ccc(Cl)cc1 -22.7
CN1CCN(Cc2ccccc2Sc2ccccc2)CC1.O=C(O)/C=C\C(=O)O -82
O=C(Nc1ccc(Cl)cc1C(F)(F)F)c1ccccc1 8.81

Lab note: each compound below needs its hERG current change (%, negative = inhibition) at 10uM filled in.
1. O=C(O)/C=C\C(=O)O.c1ccc(Sc2ccccc2CN2CCCC2)cc1
2. CCOC(=O)[C@H]1CCC[C@@H](NS(=O)(=O)c2ccc(NC(C)=O)cc2)C1
3. CNCc1ccccc1Sc1cccc(O)c1.O=C(O)/C=C\C(=O)O
4. Cc1ccc(NC(=S)N(CCCN2CCCC2)Cc2cccn2Cc2ccc(Cl)cc2)cc1

1. -50.7
2. 14.1
3. 7.03
4. -22.9

----------
Target: human ether-à-go-go-related gene (hERG) potassium channel (human, UniProt Q12809);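 further: peak tail current of the secondary pulse compared with the same well before compound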
Assay: primary screen, population patch clamp on CHO cells stably expressing hERG; higher = less effect of the substance
Among all 310,000 compounds or so, about 14,000 (4.5%) showed an effect of 50% or more. The effect is printed as a negative number. For the sample, strong results were picked, then their nearest neighbours and some compounds at random.
Please enter Satisfied where hERG current change (%, negative = inhibition) at 10uM is greater than or equal to -20%, and Not satisfied where it is lower.

Record excerpt, results attached:
Molecule	Class Label
CC1CCN(S(=O)(=O)c2ccc(NC(=O)CN3CCN(c4ccccc4)CC3)cc2)CC1	Not satisfied
CC1CCN(CC(=O)Nc2ccc(S(=O)(=O)N3CCC(C)CC3)cc2)CC1.Cl	Not satisfied
Cc1cc(C)c2nc(C)cc(Nc3ccc(C(=O)N4CCOCC4)cc3)c2c1	Not satisfied
CCOc1ccc(Nc2cc(C)nc3c(C)cccc23)cc1	Not satisfied
Cc1ccc(Nc2cc(C)nc3c(C)cccc23)cc1	Not satisfied

Has "O=c1[nH]c(O)c(C=Nc2ccccc2Oc2ccccc2)c(=O)[nH]1" a recorded hERG current change (%, negative = inhibition) at 10uM greater than or equal to -20%?
Satisfied

----------
Target: human ether-à-go-go-related gene (hERG) potassium channel (human, UniProt Q12809);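 further: peak tail current of the secondary pulse compared with the same well before compound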
Assay: primary screen, population patch clamp on CHO cells stably expressing hERG; higher = less effect of the substance
About 14,000 (4.5%) of roughly 310,000 compounds showed an effect of 50% or more. Effects have a minus sign here. This excerpt belongs to a sample that is enriched for strong results.
Exercise: for every item that follows, state its recorded hERG current change (%, negative = inhibition) at 10uM.
Give bare numbers, in %.

Here are 3 compounds together with their reported answers.
O=C(Oc1nsnc1N1CCOCC1)N1CCOCC1 15.3
Cc1cc(C)c2cc(C(=O)N3CCC(C(=O)c4ccc(F)cc4)CC3)[nH]c2c1 2.63
Cc1ccc(C(=O)N/C(=C\c2ccc(-c3cccc([N+](=O)[O-])c3)o2)C(=O)NCCCN2CCOCC2)cc1 -74.9

Provide hERG current change (%, negative = inhibition) at 10uM for all items below, preserving their order.
1. COc1ccccc1Nc1c2ccccc2nc2ccccc12
2. CCOC(=O)C1CCN(C(=O)c2cc3c(C)cc(C)cc3[nH]2)CC1
3. Cc1nn(C)c(C(=O)N/N=C/c2ccncc2)c1Cl
4. COc1ccc(-n2nc(C(=O)NCC(=O)NC3CCCCCC3)c3ccccc3c2=O)c(OC)c1

-71
-15.2
7.35
11.1

Consider the following items and state reported hERG current change (%, negative = inhibition) at 10uM for each.
1. COc1cc(C(=O)Nc2ccc(S(=O)(=O)NC(C)C)cc2)cc(OC)c1OC
2. CC(C)[C@H](NC(=O)c1ccccc1)C(=O)OCC(=O)c1ccc2c(c1)NC(=O)CO2

1: -2.49; 2: -26.3

----------
Target: human ether-à-go-go-related gene (hERG) potassium channel (human, UniProt Q12809);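 further: peak tail current of the secondary pulse compared with the same well before compound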
Assay: primary screen, population patch clamp on CHO cells stably expressing hERG; higher = less effect of the substance
About 14,000 (4.5%) of roughly 310,000 compounds showed an effect of 50% or more. The effect is printed as a negative number. Many of the other results were omitted from the sample, so strong results are more common in it than they were.
Value Type: hERG current change (%, negative = inhibition) at 10uM (%)
Give bare numbers, in %.

Known results for compounds:
Compound	Tested On	Numeric Value
CCN(C(=O)COC(=O)c1cc(-c2cccc3ccccc23)nc2ccccc12)C1CCS(=O)(=O)C1 (centres unmarked)	human ether-à-go-go-related gene (hERG) potassium channel (human, UniProt Q12809)	-6.23
Cc1ccc(-c2cc(C(=O)OCC(=O)N(C)C3CCS(=O)(=O)C3)c3ccccc3n2)o1 (centres unmarked)	human ether-à-go-go-related gene (hERG) potassium channel (human, UniProt Q12809)	-19.1
O=C(O)c1cc2c(s1)-c1ccccc1OC2	human ether-à-go-go-related gene (hERG) potassium channel (human, UniProt Q12809)	9.73
Brc1csc(C=Nc2ccc3c(c2)OCCOCCOCCOCCO3)c1	human ether-à-go-go-related gene (hERG) potassium channel (human, UniProt Q12809)	-73.5
CC(=O)Nc1nc(CC(C)C)cc(-c2ccccc2)c1C#N	human ether-à-go-go-related gene (hERG) potassium channel (human, UniProt Q12809)	4.98
CC1CCN(C(=S)c2cn(Cc3ccc(F)cc3)c3ccccc23)CC1	human ether-à-go-go-related gene (hERG) potassium channel (human, UniProt Q12809)	-1.82
CC1CCN(CCCNC(=O)c2cc3c(s2)-c2ccccc2OC3)CC1	human ether-à-go-go-related gene (hERG) potassium channel (human, UniProt Q12809)	-74.6
Oc1c(Cl)cc(Cl)cc1C=Nc1ccc2c(c1)OCCO2	human ether-à-go-go-related gene (hERG) potassium channel (human, UniProt Q12809)	21.2
CC1CC(C)CN(CCCNC(=O)c2cc3c(s2)-c2ccccc2OC3)C1 (centres unmarked)	human ether-à-go-go-related gene (hERG) potassium channel (human, UniProt Q12809)	-70.2
Brc1ccc(C=Nc2ccc3c(c2)OCCOCCOCCO3)s1	human ether-à-go-go-related gene (hERG) potassium channel (human, UniProt Q12809)	-66.2

Each of the following entries comes with a recorded value; kindly state hERG current change (%, negative = inhibition) at 10uM for each.
1. Cc1cccc2c1-c1sc(C(=O)Nc3ccccc3N3CCN(C)CC3)cc1CO2
2. CCOC(=O)C1CCN(C(=O)c2cc3c(s2)-c2ccccc2OC3)CC1
3. CCN(C(=O)COC(=O)c1cccnc1Nc1ccccc1F)C1CCS(=O)(=O)C1 (centres unmarked)
4. CN(C(=O)COC(=O)c1cn(-c2ccccc2)nc1-c1ccccc1)C1CCS(=O)(=O)C1 (centres unmarked)

-13.4
-38.9
-9.99
-16.6

Provide each entry's hERG current change (%, negative = inhibition) at 10uM from the list below.
1. O=C(Nc1cccnc1Cl)c1cc2c(s1)-c1ccccc1OC2
2. C/C(=N\NC(=O)C1CCCC1)c1ccc(Cl)c(Cl)c1
3. O=C(COC(=O)c1cccnc1Nc1ccccc1F)NCCN1C(=O)CSC1=O
4. CN1CCN(c2ccccc2NC(=O)c2cc3c(s2)-c2ccccc2OC3)CC1

1. -3.48
2. 13.7
3. -27.7
4. -51.3

// each listed compound needs a value for hERG current change (%, negative = inhibition) at 10uM
1. COC(=O)c1ccc(/C=C/c2c(-c3ccc(OC)cc3)oc3ccc(N4CCOCC4)cc23)cc1
2. CCN(C(=O)COC(=O)c1cn(-c2ccccc2)nc1-c1ccccc1)C1CCS(=O)(=O)C1 (centres unmarked)

1: 25.7; 2: -75.9
